Item-by-item account of Z score Rep1
TGT: SaCas9 (Staphylococcus aureus, UniProt J7RUA5)
Sequence (J7RUA5 whole entry): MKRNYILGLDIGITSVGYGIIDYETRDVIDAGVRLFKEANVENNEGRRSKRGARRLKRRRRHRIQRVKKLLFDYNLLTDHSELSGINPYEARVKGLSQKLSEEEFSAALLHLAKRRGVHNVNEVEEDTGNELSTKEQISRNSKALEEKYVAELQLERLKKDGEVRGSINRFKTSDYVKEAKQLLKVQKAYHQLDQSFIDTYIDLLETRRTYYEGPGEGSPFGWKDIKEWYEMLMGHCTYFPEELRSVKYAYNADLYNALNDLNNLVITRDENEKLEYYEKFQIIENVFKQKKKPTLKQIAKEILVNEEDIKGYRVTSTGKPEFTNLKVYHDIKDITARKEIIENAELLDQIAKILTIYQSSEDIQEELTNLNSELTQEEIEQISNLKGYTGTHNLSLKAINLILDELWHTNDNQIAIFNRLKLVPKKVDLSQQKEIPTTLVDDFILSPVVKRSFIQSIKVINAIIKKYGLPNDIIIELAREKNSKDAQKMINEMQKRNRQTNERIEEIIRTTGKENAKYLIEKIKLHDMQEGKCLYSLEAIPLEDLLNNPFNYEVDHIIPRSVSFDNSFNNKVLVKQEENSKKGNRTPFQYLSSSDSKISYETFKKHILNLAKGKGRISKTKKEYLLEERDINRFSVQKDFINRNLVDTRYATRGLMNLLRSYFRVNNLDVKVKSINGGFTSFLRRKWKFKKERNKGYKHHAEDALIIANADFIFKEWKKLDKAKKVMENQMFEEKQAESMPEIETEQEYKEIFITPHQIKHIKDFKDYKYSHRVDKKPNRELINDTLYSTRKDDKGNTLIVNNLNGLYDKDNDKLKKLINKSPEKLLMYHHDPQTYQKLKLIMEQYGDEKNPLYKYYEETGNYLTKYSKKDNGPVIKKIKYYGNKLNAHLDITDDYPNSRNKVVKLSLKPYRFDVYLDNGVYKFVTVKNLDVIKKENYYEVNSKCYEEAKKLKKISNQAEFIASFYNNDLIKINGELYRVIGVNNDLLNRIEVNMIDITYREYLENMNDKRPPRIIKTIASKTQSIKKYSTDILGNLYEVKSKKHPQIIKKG
ASSAY NOTES: eGFP secondary assay, SaCas9
Type: cell-based
MEASUREMENT CONDITIONS: replicate 1, Zscore>3 selected as hit
Reply with the value as a number alone.

Past entries and their recorded results:
- COMPOUND: "C=CC1=C(C(=O)O)N2C(=O)[C@@H](NC(=O)C(=NOCC(=O)O)c3csc(N)n3)[C@H]2SC1.O"
  RESULT NUMBER: 4.745
- COMPOUND: "NC(=O)c1sc(=S)n(Cc2ccccc2)c1N"
  RESULT NUMBER: 9.005
- COMPOUND: "O=C1c2ccccc2C(=O)c2oc(-c3ccc(F)cc3)nc21"
  RESULT NUMBER: 3.528
- COMPOUND: "COc1ccccc1-c1nn2c(-c3cccnc3)nnc2s1"
  RESULT NUMBER: 2.609

Then there is this compound:
Exercise: Name the reported Z score Rep1 value associated with the compound Cc1ccccc1CC(=O)N1CCCC(c2nc(O)c3nnn(Cc4ccc(F)cc4)c3n2)C1 (centres unmarked)
Key: 3.615
